Tested on: FT3469 (normal neural stem cell line);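 also: nuclei counted by high-content imaging of Hoechst-stained cells in laminin-coated 384-well plates, relative to 0.1% DMSO vehicle wells, with staurosporine as cell-death control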
Method description: surviving fraction (nuclei count normalised to DMSO); higher = more cells surviving (less toxic)
Condition details: 1000 nM; exposure time: 72 h
Structures can show the parent of a compound that is named as a salt.
Measurement label: surviving fraction
Format: numeric value only, no unit, no commentary.

surviving fraction recorded for this molecule, O=C(O)c1ccc(-c2c[nH]c3ncc(-c4ccccc4)cc23)cc1C1CCCC1 , is 0.996

Form: molecule = COC(=O)C1=C(C)NC(C)=C(C(=O)OCC(C)C)C1c1ccccc1[N+](=O)[O-] (stereo not drawn) [Nisoldipine] ; surviving fraction = 0.942

Value of surviving fraction reported for the molecule COc1cccc2c(NCc3ccccc3)nc(-n3c(N)nc4ccccc43)nc12 [ML240] is 0.68

For this molecule ( CC1(C)S[C@@H]2[C@H](NC(=O)Cc3ccccc3)C(=O)N2[C@H]1C(=O)O [Benzylpenicillin sodium] ), measured surviving fraction is 1.27

According to the records, this molecule COc1c(N2CCNC(C)C2)c(F)cc2c(=O)c(C(=O)O)cn(C3CC3)c12 (stereo not drawn) [Gatifloxacin] displays surviving fraction of 0.995

Sample N=C(N)NCc1cccc(I)c1 [Iobenguane sulfate] ; surviving fraction observed: 0.904

Recorded surviving fraction (molecule CC(C)CC(=O)N[C@H](C(=O)N[C@H](C(=O)N[C@@H](CC(C)C)[C@@H](O)CC(=O)N[C@@H](C)C(=O)N[C@@H](CC(C)C)[C@@H](O)CC(=O)O)C(C)C)C(C)C [Pepstatin A] ): 0.993

response.value for N=C(NCCCCCCNC(=N)NC(=N)Nc1ccc(Cl)cc1)NC(=N)Nc1ccc(Cl)cc1 [Chlorhexidine] (field: surviving fraction) = 0.806

These measurements were taken from the supplement of paper PMC13207355.
